tested on: Pseudomonas; assay: Antibacterial activity against Pseudomonas pallida by agar well diffusion method; assay type: functional
propertyLabel: MIC (µM)
Your answer should be a plain number; it is taken to be in µM.

input: Entry C/C=C(\C)C(=O)N[C@H]1CC[C@]2(C)[C@H]3CC[C@]4(C)[C@@H]([C@H](C)NC)CC[C@H]4[C@@H]3CC[C@H]2[C@H]1OC(C)=O has what MIC?
output: 32.1

input: Please give the result for C[C@@H]([C@H]1CC[C@H]2[C@@H]3CC[C@H]4C[C@@H](N)CC[C@]4(C)[C@H]3CC[C@]12C)N(C)C too.
output: 181

input: Can you check C[C@@H]([C@H]1CC[C@H]2[C@@H]3CC[C@H]4C[C@@H](N(C)C)CC[C@]4(C)[C@H]3CC[C@]12C)N(C)C next?
output: 167
